Source of measurements: paper PMC10534827

assay-overview: DPPH radical scavenging activity
run-conditions: 300 μL of 5 mM compound in MeOH, 30 min, 517 nm
observed-property: DPPH Activity (%)
Numeric answer only, unit % assumed.

COc1ccc(C(=O)N/N=C/C2CCN(Cc3ccccc3)CC2)cc1 : 40.80
O=C(N/N=C/C1CCN(Cc2ccccc2)CC1)c1c[nH]c2ccccc12 : 30.05
Cc1ccc(S(=O)(=O)N/N=C/c2cn(Cc3ccccc3)c3ccccc23)cc1 : 45.72
CC(C)(C)OC(=O)NCC(=O)N/N=C/c1cn(Cc2ccccc2)c2ccccc12 : 32.06

*Q* Input COc1ccc2[nH]cc(/C=N/NC(=O)Cc3c[nH]c4ccccc34)c2c1 , output reported DPPH Activity.
*A* 40.62

*Q* Input O=S(=O)(N/N=C/C1CCN(Cc2ccccc2)CC1)c1ccccc1 , output reported DPPH Activity.
*A* 6.56

*Q* Input O=S(=O)(N/N=C/c1c[nH]c2ccc(OCc3ccccc3)cc12)c1ccccc1 , output reported DPPH Activity.
*A* 47.18

*Q* Input O=C(Cc1c[nH]c2ccccc12)N/N=C/C1CCN(Cc2ccccc2)CC1 , output reported DPPH Activity.
*A* 5.74

*Q* Input COc1ccc(/C=N/NS(=O)(=O)c2ccc(C)cc2)cc1OC , output reported DPPH Activity.
*A* 16.94

*Q* Input O=C(N/N=C/C1CCN(Cc2ccccc2)CC1)c1ccc(O)cc1O , output reported DPPH Activity.
*A* 13.30

* * *

study-system: Acetylcholinesterase from Electrophorus electricus (Electrophorus electricus, UniProt O42275)
Construct: purchased Sigma-Aldrich, Hamburg, Germany
Sequence (O42275 24-633): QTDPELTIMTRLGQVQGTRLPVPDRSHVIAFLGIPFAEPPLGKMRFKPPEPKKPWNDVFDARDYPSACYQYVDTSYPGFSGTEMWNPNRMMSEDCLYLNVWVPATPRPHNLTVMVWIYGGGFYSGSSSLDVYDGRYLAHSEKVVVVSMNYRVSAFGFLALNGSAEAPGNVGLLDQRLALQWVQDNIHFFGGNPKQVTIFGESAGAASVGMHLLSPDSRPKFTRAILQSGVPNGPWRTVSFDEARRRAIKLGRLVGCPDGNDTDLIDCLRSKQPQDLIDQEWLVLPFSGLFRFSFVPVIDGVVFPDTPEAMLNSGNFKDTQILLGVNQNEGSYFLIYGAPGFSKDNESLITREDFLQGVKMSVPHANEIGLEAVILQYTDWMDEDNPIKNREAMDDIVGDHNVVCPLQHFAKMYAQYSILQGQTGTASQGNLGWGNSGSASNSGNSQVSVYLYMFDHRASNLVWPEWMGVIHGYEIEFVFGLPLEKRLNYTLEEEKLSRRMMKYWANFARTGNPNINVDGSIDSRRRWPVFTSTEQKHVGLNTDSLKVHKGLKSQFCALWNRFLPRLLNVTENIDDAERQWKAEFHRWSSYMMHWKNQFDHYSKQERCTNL
assay-overview: biochemical
Type: biochemical
run-conditions: 1 mM solution of the tested compound; read-out: Activity [%] (inhibition percentage of AChE)
Kindly return true (1) if reported inhibition at 1000 µM is no lower than 30%; return false (0) if it is lower.

Here's what some known entries look like.
O=S(=O)(N/N=C/c1c[nH]c2ccc(OCc3ccccc3)cc12)c1ccccc1 : true (1)
O=C(N/N=C/C1CCN(Cc2ccccc2)CC1)c1ccc(O)cc1O : true (1)
COc1ccc(/C=N/NS(=O)(=O)c2ccccc2)cc1OC : false (0)

*Q* Could you verify whether the entry O=S(=O)(N/N=C/c1cn(Cc2ccccc2)c2ccccc12)c1ccccc1 shows inhibition at 1000 µM of no less than 30%?
*A* true (1)

*Q* Could you verify whether the entry Cc1ccc(S(=O)(=O)N/N=C/c2cn(Cc3ccccc3)c3ccccc23)cc1 shows inhibition at 1000 µM of no less than 30%?
*A* false (0)

*Q* Could you verify whether the entry Cc1ccc(S(=O)(=O)N/N=C/c2c[nH]c3ccc(OCc4ccccc4)cc23)cc1 shows inhibition at 1000 µM of no less than 30%?
*A* false (0)

*Q* Could you verify whether the entry O=C(Cc1c[nH]c2ccccc12)N/N=C/C1CCN(Cc2ccccc2)CC1 shows inhibition at 1000 µM of no less than 30%?
*A* true (1)

*Q* Could you verify whether the entry CC(C)(C)OC(=O)NCC(=O)N/N=C/c1cn(Cc2ccccc2)c2ccccc12 shows inhibition at 1000 µM of no less than 30%?
*A* false (0)

*Q* Could you verify whether the entry O=C(N/N=C/c1c(O)cc(O)cc1O)C1CCN(Cc2ccccc2)C1 (centres unmarked) shows inhibition at 1000 µM of no less than 30%?
*A* true (1)

*Q* Could you verify whether the entry COc1ccc2[nH]cc(CCNC(C)=O)c2c1 [Melatonin, reference compound] shows inhibition at 1000 µM of no less than 30%?
*A* false (0)

* * *

Each entry below carries its reported log10 IC50.
Tested on: SH-SY5Y cells
assay-overview: MTT cytotoxicity, SH-SY5Y
Type: cell-based, human
run-conditions: Homo sapiens, SH-SY5Y; MTT, 72 h exposure; read-out: SH-SY5Y IC50
A difference of one corresponds to tenfold IC50; all values are log10 with IC50 in µM.

// below: answered molecules
O=C(N/N=C/C1CCN(Cc2ccccc2)CC1)c1ccc(O)cc1O : 2.14
O=C(Cc1c[nH]c2ccccc12)N/N=C/C1CCN(Cc2ccccc2)CC1 : 2.11
COc1ccc(S(=O)(=O)N/N=C/c2c[nH]c3ccc(OC)cc23)cc1 : 1.68
COc1ccc(S(=O)(=O)N/N=C/c2cn(C)c3ccccc23)cc1 : 1.92
O=C(N/N=C/c1ccc(O)cc1O)C1CCN(Cc2ccccc2)C1 (stereo not drawn) : 1.55

*Q* Input O=S(=O)(N/N=C/c1ccc(Cl)cc1)c1ccccc1 , output reported log10 IC50.
*A* 2.00

*Q* Input CC(C)(C)OC(=O)NCC(=O)N/N=C/c1cn(Cc2ccccc2)c2ccccc12 , output reported log10 IC50.
*A* 0.86

*Q* Input COc1ccc(/C=N/NC(=O)c2c[nH]c3ccccc23)cc1OC , output reported log10 IC50.
*A* 1.85

*Q* Input O=S(=O)(N/N=C/c1c[nH]c2ccc(OCc3ccccc3)cc12)c1ccccc1 , output reported log10 IC50.
*A* 2.13

*Q* Input COc1ccc2[nH]cc(/C=N/NC(=O)Cc3c[nH]c4ccccc34)c2c1 , output reported log10 IC50.
*A* 2.03

*Q* Input Cc1ccc(S(=O)(=O)N/N=C/c2cn(Cc3ccccc3)c3ccccc23)cc1 , output reported log10 IC50.
*A* 1.96

*Q* Input COc1ccc(/C=N/NC(=O)Cc2c[nH]c3ccccc23)cc1OC , output reported log10 IC50.
*A* 1.94

*Q* Input O=S(=O)(N/N=C/c1cn(Cc2ccccc2)c2ccccc12)c1ccccc1 , output reported log10 IC50.
*A* 2.00

* * *

Each entry below carries its reported pIC50.
Tested on: Neuro-2a cells
assay-overview: MTT cytotoxicity, Neuro-2a
Type: cell-based, murine
run-conditions: Mus musculus, N2a; MTT, 72 h exposure; read-out: Neuro-2a IC50
Lab note — pIC50 values are minus log10 of concentrations in M.

// below: answered compounds
COc1ccc(/C=N/NC(=O)c2c[nH]c3ccccc23)cc1OC [3o] : 3.90
CC(C)(C)OC(=O)NCC(=O)N/N=C/c1cn(Cc2ccccc2)c2ccccc12 [3m] : 3.96

Query compound follows.
*Q* Retrieve pIC50 on Neuro-2a cells; query O=S(=O)(N/N=C/c1ccc(Cl)cc1)c1ccccc1 [5l]
*A* 3.93

* * *

Each entry below carries its reported Absorbance Day 5.
assay-overview: Lipid peroxidation in linoleic acid system, FTC method
run-conditions: 10 mM compound, 500 nm, Day 5

Cc1ccc(S(=O)(=O)N/N=C/c2c[nH]c3ccc(OCc4ccccc4)cc23)cc1 : 0.82 ± 0.02
COc1ccc(/C=N/NS(=O)(=O)c2ccc(C)cc2)cc1OC : 0.80 ± 0.05

*Q* Input O=C(Cc1c[nH]c2ccccc12)N/N=C/C1CCN(Cc2ccccc2)CC1 , output reported Absorbance Day 5.
*A* 0.71 ± 0.08

*Q* Input COc1ccc(/C=N/NS(=O)(=O)c2ccccc2)cc1OC , output reported Absorbance Day 5.
*A* 0.83 ± 0.03

*Q* Input CC(C)(C)OC(=O)NCC(=O)N/N=C/c1cn(Cc2ccccc2)c2ccccc12 , output reported Absorbance Day 5.
*A* 0.96 ± 0.08

*Q* Input COc1cc(/C=N/NC(=O)Cc2c[nH]c3ccccc23)ccc1O , output reported Absorbance Day 5.
*A* 0.91 ± 0.09

*Q* Input O=C(N/N=C/C1CCN(Cc2ccccc2)CC1)c1ccc(O)cc1O , output reported Absorbance Day 5.
*A* 1.00 ± 0.02

* * *

Each entry below carries its reported pIC50.
assay-overview: ABTS radical scavenging assay
run-conditions: 734 nm after 5 min
Lab note — pIC50 values are minus log10 of concentrations in M.

COc1ccc(/C=N/NS(=O)(=O)c2ccccc2)cc1OC : 2.43

*Q* Input COc1ccc(/C=N/NS(=O)(=O)c2ccc(C)cc2)cc1OC , output reported pIC50.
*A* 2.73

*Q* Input O=C(N/N=C/C1CCN(Cc2ccccc2)CC1)c1ccc(O)cc1O , output reported pIC50.
*A* 2.59

*Q* Input O=S(=O)(N/N=C/c1c[nH]c2ccc(OCc3ccccc3)cc12)c1ccccc1 , output reported pIC50.
*A* 2.59

*Q* Input COc1cc(/C=N/NC(=O)c2ccc(O)cc2O)ccc1O , output reported pIC50.
*A* 2.60

* * *

Test system: Neuro-2a cells
assay-overview: MTT cytotoxicity, Neuro-2a
Assay type: cell-based, murine
run-conditions: Mus musculus, N2a; MTT, 72 h exposure; read-out: Neuro-2a IC50
observed-property: IC50 (µM)
Numeric answer only, unit µM assumed.

COc1cc(/C=N/NC(=O)Cc2c[nH]c3ccccc23)ccc1O [3q] : 254
Cc1ccc(S(=O)(=O)N/N=C/c2cn(Cc3ccccc3)c3ccccc23)cc1 [5g] : 135
COc1ccc(/C=N/NC(=O)Cc2c[nH]c3ccccc23)cc1OC [3p] : 116
COc1ccc2[nH]cc(/C=N/NC(=O)Cc3c[nH]c4ccccc34)c2c1 [3n] : 83.7

*Q* Input O=S(=O)(N/N=C/c1c[nH]c2ccc(OCc3ccccc3)cc12)c1ccccc1 [5k] , output reported IC50.
*A* 77.7

*Q* Input COc1ccc(S(=O)(=O)N/N=C/c2c[nH]c3ccc(OC)cc23)cc1 [5c] , output reported IC50.
*A* 7.5

*Q* Input COc1ccc(/C=N/NS(=O)(=O)c2ccc(C)cc2)cc1OC [5h] , output reported IC50.
*A* 136

*Q* Input Cc1ccc(S(=O)(=O)N/N=C/c2c[nH]c3ccc(OCc4ccccc4)cc23)cc1 [5j] , output reported IC50.
*A* 65.4

*Q* Input COc1ccc(/C=N/NS(=O)(=O)c2ccccc2)cc1OC [5i] , output reported IC50.
*A* 109

*Q* Input O=S(=O)(N/N=C/c1cn(Cc2ccccc2)c2ccccc12)c1ccccc1 [5d] , output reported IC50.
*A* 117

*Q* Input O=C(N/N=C/c1ccc(O)cc1O)C1CCN(Cc2ccccc2)C1 (stereo not drawn) [3f] , output reported IC50.
*A* 12.5

*Q* Input COc1ccc(S(=O)(=O)N/N=C/c2cn(C)c3ccccc23)cc1 [5e] , output reported IC50.
*A* 19.9

*Q* Input O=C(N/N=C/c1ccc(O)c(O)c1)C1CCN(Cc2ccccc2)C1 (stereo not drawn) [3g] , output reported IC50.
*A* 110

*Q* Input COc1ccc(S(=O)(=O)N/N=C/c2cn(C)c3ccc(OC)cc23)cc1 [5b] , output reported IC50.
*A* 30.5
